target: GSK-3α/β; test: Protein kinase assay; format: biochemical, porcine; conditions: 15 μmol/L ATP
METRIC: IC50

molecule=COc1cc(/C=C2\N=C(N)NC2=O)ccc1O result_value="> 10 µM"
molecule=NC1=NC(=Cc2cccc(Br)c2)C(=O)N1 result_value="> 10 µM"
molecule=NC1=NC(=Cc2cc(Br)cs2)C(=O)N1 result_value="2 µM"
molecule="NC1=NC(=O)/C(=C2\\CCNC(=O)c3[nH]c(Br)cc32)N1 [Hymenialdisine, reference compound]" result_value="0.0032 µM"
molecule="O=C1NC(Nc2ccccc2)=N/C1=C\\c1ccc2c(c1)OCO2 [Leucettine L41, reference compound]" result_value="1.1 µM"

Switching to the query record.
Lookup: Notebook: pull reported IC50 for GSK-3α/β, entry NC1=NC(=O)/C(=C2\CCNC(=O)c3[nH]cc(Br)c32)N1
Found: 0.044 µM

* * *

Target: PfGSK-3 (Plasmodium falciparum, UniProt O77344)
Sequence (O77344 1-440): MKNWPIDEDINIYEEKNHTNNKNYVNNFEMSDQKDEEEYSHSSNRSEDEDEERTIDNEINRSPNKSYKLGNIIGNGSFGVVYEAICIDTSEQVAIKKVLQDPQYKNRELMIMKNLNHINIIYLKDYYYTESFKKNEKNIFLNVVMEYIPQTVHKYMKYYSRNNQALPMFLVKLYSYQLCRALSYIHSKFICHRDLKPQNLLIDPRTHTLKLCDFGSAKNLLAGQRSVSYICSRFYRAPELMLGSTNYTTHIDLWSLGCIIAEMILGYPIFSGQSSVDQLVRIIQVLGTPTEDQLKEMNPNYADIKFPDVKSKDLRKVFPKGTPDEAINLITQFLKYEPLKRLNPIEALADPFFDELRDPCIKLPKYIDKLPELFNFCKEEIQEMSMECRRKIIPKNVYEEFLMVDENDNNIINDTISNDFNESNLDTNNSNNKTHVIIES
Assay: Protein kinase assay
Format: biochemical
Settings: 15 μmol/L ATP; read-out: IC50 PfGSK-3
pIC50: −log10 of the molar value.
METRIC: pIC50

Some entries whose results are on file:
compound=NC1=NC(=Cc2ccccc2N2CCOCC2)C(=O)N1 metric=pIC50 result_value="< 5.00"
compound=NC1=NC(=Cc2ccc(-n3ccnc3)cc2)C(=O)N1 metric=pIC50 result_value="< 5.00"
compound="NC1=NC(=O)/C(=C2\\CCNC(=O)c3[nH]c(Br)cc32)N1 [Hymenialdisine, reference compound]" metric=pIC50 result_value=8.39
compound=NC1=NC(=Cc2c[nH]nc2-c2ccccc2)C(=O)N1 metric=pIC50 result_value="< 5.00"
compound=NC1=NC(=O)/C(=C2\CCNC(=O)c3[nH]cc(Br)c32)N1 metric=pIC50 result_value=7.42
compound=CN1C(=O)N=C(Nc2nc(Cc3ccc4c(c3)OCO4)cn2C)C1=O metric=pIC50 result_value="< 5.00"

Lookup: # pIC50 lookup, item NC1=NC(=Cc2cccc(Br)c2)C(=O)N1
Found: < 5.00

Lookup: Quick check: pIC50 of CN(C)CCOc1ccc(C=C2N=C(N)NC2=O)cc1 ?
Found: < 5.00

* * *

biological target: CDK9/cyclin T (Homo sapiens); assay: Protein kinase assay; conditions: IC50 CDK9/cyclin T, 15 μmol/L ATP
Sequence (P50750 whole entry): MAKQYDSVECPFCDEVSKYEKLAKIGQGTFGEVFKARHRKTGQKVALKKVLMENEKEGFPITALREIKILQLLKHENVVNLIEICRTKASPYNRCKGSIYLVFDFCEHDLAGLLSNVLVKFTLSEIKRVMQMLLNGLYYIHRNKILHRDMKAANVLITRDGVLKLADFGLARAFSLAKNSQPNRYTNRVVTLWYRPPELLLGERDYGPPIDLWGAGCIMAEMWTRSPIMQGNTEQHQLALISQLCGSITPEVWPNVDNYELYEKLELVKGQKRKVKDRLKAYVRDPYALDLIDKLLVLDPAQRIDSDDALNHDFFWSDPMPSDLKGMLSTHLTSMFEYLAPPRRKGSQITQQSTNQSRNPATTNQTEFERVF
Sequence (O60563 whole entry partner): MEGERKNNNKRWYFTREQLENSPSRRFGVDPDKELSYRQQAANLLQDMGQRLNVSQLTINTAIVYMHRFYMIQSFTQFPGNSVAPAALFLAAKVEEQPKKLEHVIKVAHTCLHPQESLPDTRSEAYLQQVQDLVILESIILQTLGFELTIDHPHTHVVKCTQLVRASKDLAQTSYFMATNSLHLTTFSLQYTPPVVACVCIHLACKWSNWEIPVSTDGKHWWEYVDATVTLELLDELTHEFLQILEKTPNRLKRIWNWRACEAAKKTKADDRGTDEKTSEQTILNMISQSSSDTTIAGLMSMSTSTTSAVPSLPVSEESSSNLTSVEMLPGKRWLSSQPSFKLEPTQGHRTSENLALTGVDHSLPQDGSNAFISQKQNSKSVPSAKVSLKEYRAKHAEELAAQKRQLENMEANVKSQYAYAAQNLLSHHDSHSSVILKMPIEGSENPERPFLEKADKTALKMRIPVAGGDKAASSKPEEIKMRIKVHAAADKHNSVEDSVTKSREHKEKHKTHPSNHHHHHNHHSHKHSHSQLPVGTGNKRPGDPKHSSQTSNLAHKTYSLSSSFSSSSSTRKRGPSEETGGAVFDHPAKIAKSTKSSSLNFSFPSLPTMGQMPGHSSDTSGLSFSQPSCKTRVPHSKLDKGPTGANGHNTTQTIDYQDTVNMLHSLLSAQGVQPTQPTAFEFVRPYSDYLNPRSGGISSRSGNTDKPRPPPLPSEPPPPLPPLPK
pIC50: −log10 of the molar value.
I would appreciate it if you labelled entries Criterion met when pIC50 is 6 or higher, otherwise Criterion not met.

Solved entries:
compound=CN1C(=O)N=C(Nc2nc(Cc3ccc4c(c3)OCO4)cn2C)C1=O category_label="Criterion not met"
compound="NC1=N/C(=C\\c2ccc(O)c(O)c2)C(=O)N1 [PAC13, polyandrocarpamine B]" category_label="Criterion not met"
compound=NC1=NC(=O)/C(=C2\CCNC(=O)c3[nH]cc(Br)c32)N1 category_label="Criterion met"
compound="NC1=N/C(=C\\CCNC(=O)c2cc(Br)c(Br)[nH]2)C(=O)N1 [Dispacamide]" category_label="Criterion not met"
compound="NC1=N/C(=C\\c2ccc(O)c(O)c2)C(=O)N1 [Polyandrocarpamine B]" category_label="Criterion not met"
compound="NC1=NC(=O)/C(=C2\\CCNC(=O)c3[nH]c(Br)cc32)N1 [Hymenialdisine, reference compound]" category_label="Criterion met"

Lookup: pIC50 >= 6 for CN1C(=O)/C(=C/c2ccc3c(c2)OCO3)N=C1N ?
Found: Criterion not met
